Cited source for all entries: patent US20210253679A1

biological target: T1, human serum albumin (human, UniProt P02768 25-609); assay: SPR, single cycle kinetics, pH 5.5
T1 construct: also called HSA
Assign pKd to each entry below.
Numbers only, as −log10 of the molar value.

Rh34-H3 (VHH) VHH: QVQLVESGGGLVQPGGSLRLSCAASGRTISLYAVGWFRQAPGKEREFVAAISWTDSSTYYADSVKGRFTISRDNSKNTLYLQMNSLRAEDTAVYYCAADVSIRGLQKYEYDYWGQGTLVTVSS : 5.64

Note: attention shifts to another entry.
Bench note: what pKd did H18-H1 (VHH) VHH: EVQLVESGGGLVQPGGSLRLSCAASGSIESINRMAWYRQAPGKGLEFVSRISKGGSTNYPDSVKGRFTISRDNSKNTLYLQMNSLRAEDTAVYYCAAGPVWEQFWGQGTLVTVSS show?
7.25
